Measured inhibition values are reported for all entries that follow.
Experiment: H1N1 influenza NS1A inhibitors, functional cell based assay (AID 504329)
Conditions: percent inhibition, at 12.5 µM, stronger effect = higher value
The whole screen tested about 340,000 compounds, of which about 1,000 (0.29%) were called active. A selection follows. Entries with a potency or affinity are not part of this list.
Output spec: scalar in %, unitless text.

>  <compound>
C/C(=N\NC(=O)c1ccccc1OCc1ccc(F)cc1)c1ccccn1

>  <result.type>
inhibition

>  <result.unit>
%

>  <reported.result>
-7.95

$$$$
>  <compound>
CCc1ccc(/C(C)=N/NC(=O)c2ccccn2)cc1

>  <result.type>
inhibition

>  <result.unit>
%

>  <reported.result>
-11.6

$$$$
>  <compound>
COc1cc(/C=N/NC(=O)c2ccc(C)nc2)cc([N+](=O)[O-])c1O

>  <result.type>
inhibition

>  <result.unit>
%

>  <reported.result>
-21.2

$$$$
>  <compound>
C=CCNC(=O)c1onc(CSc2ccc(F)cc2)c1C(=O)NCC=C

>  <result.type>
inhibition

>  <result.unit>
%

>  <reported.result>
8.73

$$$$
>  <compound>
CCN1C(=NCCCOC(C)C)N[C@@H](CCc2ccccc2)[C@H](C(=O)NCCCOC(C)C)[C@H]1C

>  <result.type>
inhibition

>  <result.unit>
%

>  <reported.result>
7.63

$$$$
>  <compound>
O=C(NNC(=S)NC(=O)c1cccnc1)c1ccc(F)cc1

>  <result.type>
inhibition

>  <result.unit>
%

>  <reported.result>
3.02

$$$$

**Q:** Fill in the blank: the reported inhibition of `C/C(=N\NC(=O)c1cccc2ccccc12)c1cccs1` is ____.
**A:** -0.84

**Q:** Can you handle `C/C(=N\NC(=O)c1ccccc1)c1cccc(Br)c1` next?
**A:** 3.22

**Q:** Also Cc1ccc2c(c1)c1c3n2CCN(C(=O)CN2CCN(C)CC2)C3CCC1 (stereo unspecified) ?
**A:** 7.29

**Q:** Please give the result for `[O-][n+]1c2c(nn1-c1ccccc1)/C(=N/O)CCC2` too.
**A:** -6.08

* * *

Assay: H1N1 influenza NS1A inhibitors, functional cell based assay (AID 504329)
Details: percent inhibition, at 12.5 µM, stronger effect = higher value
Out of some 340,000 compounds screened, about 1,000 (0.29%) were called active. Not all results are given here. Potency and affinity values are given separately.
result.type: inhibition (%)
Kindly provide the numeric value in % only, without the unit symbol.

Reference set (8 entries):
>  <molecule>
Nc1ccc(-c2ccccc2)cc1

>  <result.type>
inhibition

>  <reported.result>
-0.13

$$$$
>  <molecule>
CCOc1cccc(CNCCCSc2ncccn2)c1

>  <result.type>
inhibition

>  <reported.result>
1.33

$$$$
>  <molecule>
CN(C)c1ccc(/C=C/c2nc3ccccc3c(=O)[nH]2)cc1

>  <result.type>
inhibition

>  <reported.result>
-10.6

$$$$
>  <molecule>
CCC(C)N(C(=O)COC(=O)CSc1ccc(C)c(C)c1)C1CCS(=O)(=O)C1 (stereo not given)

>  <result.type>
inhibition

>  <reported.result>
-5.16

$$$$
>  <molecule>
O=C(NN=C(c1ccccc1)c1ccccn1)c1ccccc1

>  <result.type>
inhibition

>  <reported.result>
-14.3

$$$$
>  <molecule>
O=C1NC(=O)C(CC(=O)N(c2ccccc2)C2(C(=O)NC3CCCC3)CCCCC2)N1 (stereo not given)

>  <result.type>
inhibition

>  <reported.result>
-0.63

$$$$
>  <molecule>
COc1ccccc1NC(=O)CSc1nnc(CNC(=O)c2cccs2)o1

>  <result.type>
inhibition

>  <reported.result>
-6.38

$$$$
>  <molecule>
CN(C)c1ccc(/C=C/c2ccc3ccccc3n2)cc1

>  <result.type>
inhibition

>  <reported.result>
-37.5

$$$$

**Q:** Give the measured inhibition of `CS(=O)(=O)Oc1ccc2c(c1)O/C(=C\c1cccc([N+](=O)[O-])c1)C2=O` .
**A:** 7.03

**Q:** Now the same for `CC[n+]1cc(C)ccc1/C=C/c1ccc(N(C)C)cc1`
**A:** -3.01

* * *

inhibition overview
Assay: H1N1 influenza NS1A inhibitors, functional cell based assay (AID 504329)
Conditions: percent inhibition, at 12.5 µM, stronger effect = higher value
Among all 340,000 compounds or so, about 1,000 (0.29%) were called active. Only a sample is shown. Potency and affinity values are given separately.
Number in %, nothing else.

Here is how some compounds turned out for inhibition.
>  <chemical.string>
C=CCOc1ccc(/C=N/NC(=O)CC(=O)NC2CCCCC2)cc1

>  <inhibition [%]>
6.03

$$$$
>  <chemical.string>
N#C/C(=C/c1ccccc1[N+](=O)[O-])c1nc(C2CC2)cs1

>  <inhibition [%]>
16.5

$$$$
>  <chemical.string>
Cc1ccccc1NC(=S)N(Cc1cccnc1)Cc1ccco1

>  <inhibition [%]>
17

$$$$
>  <chemical.string>
NS(=O)(=O)c1ccc(N=Nc2c(O)c(C(=O)O)cc3ccccc23)cc1

>  <inhibition [%]>
14

$$$$

Below: the item to evaluate.
**Q:** Using the record for `CCN1/C(=C/c2ccc3cc(C)ccc3[n+]2CC)Sc2ccc3sccc3c21` , report its inhibition.
**A:** -14

* * *

Experiment: H1N1 influenza NS1A inhibitors, functional cell based assay (AID 504329)
Details: percent inhibition, at 12.5 µM, stronger effect = higher value
In all, about 340,000 compounds went through this assay and about 1,000 (0.29%) were called active. A selection follows. Results with a measured potency or affinity are listed apart.
result.type: inhibition (%)
A number alone suffices; assume %.

See these solved cases before continuing.
>  <compound>
O=C(CSc1n[nH]c(=O)[nH]c1=O)Nc1ccccc1C(=O)c1ccccc1

>  <inhibition (%)>
-9.72

$$$$
>  <compound>
O=C(CSc1nncs1)Nc1cc(S(=O)(=O)N2CCOCC2)ccc1N1CCCC1

>  <inhibition (%)>
-2.14

$$$$
>  <compound>
CCN(Cc1ccccc1)C(=O)COC(=O)CNS(=O)(=O)c1ccc(C)cc1

>  <inhibition (%)>
-5.52

$$$$
>  <compound>
COc1ccc(N2CCN(C(=O)c3ccc(Cl)c(S(=O)(=O)N4CCOCC4)c3)CC2)cc1

>  <inhibition (%)>
-0.24

$$$$
>  <compound>
CC(C)CC(=O)Nc1nnc(SCC(=O)NCC2CCCO2)s1 (stereo not given)

>  <inhibition (%)>
-4.89

$$$$

Consider the record given below.
**Q:** Consider the compound shown here: `Cc1nnc2sc(SCc3ccc(Cl)cc3)nn2c1=O` What is its recorded inhibition?
**A:** -5.29

* * *

Assay: H1N1 influenza NS1A inhibitors, functional cell based assay (AID 504329)
Settings: percent inhibition, at 12.5 µM, stronger effect = higher value
The whole screen tested about 340,000 compounds, of which about 1,000 (0.29%) were called active. These entries were drawn from the full list. Measured potencies and affinities stand elsewhere.
result.type: inhibition (%)
Record the value in %, omitting the unit from your answer.

>  <compound>
O=C1c2cccc(NCCNCCO)c2C(=O)c2cccc(NCCNCCO)c21

>  <inhibition, %>
28

$$$$
>  <compound>
Cc1nc(N2CCCCC2)c2ccsc2n1

>  <inhibition, %>
-1.56

$$$$
>  <compound>
COc1ccc(N2CCN(CCC(N)=O)CC2)cc1

>  <inhibition, %>
-4.44

$$$$
>  <compound>
Cc1noc(C)c1S(=O)(=O)Nc1ccccc1N1CCOCC1

>  <inhibition, %>
0.87

$$$$
>  <compound>
CCOC(=O)CC(NC(=O)c1cc2cccc(OC)c2oc1=O)c1ccc(OC)cc1 (stereo not drawn)

>  <inhibition, %>
-20.4

$$$$

Turning now to a further record.
**Q:** Look up inhibition: CCC(C(=O)NC1CCCC1)n1c(SCc2cccc(C)c2)nc2ccncc21 (stereo not drawn)
**A:** -51.9

* * *

Assay: H1N1 influenza NS1A inhibitors, functional cell based assay (AID 504329)
Details: percent inhibition, at 12.5 µM, stronger effect = higher value
Hit rate of the full screen: of about 340,000 compounds, about 1,000 (0.29%) were called active. A selection follows. Potency and affinity values are given separately.
result.type: inhibition (%)
Report only the number, with the unit % understood.

>  <compound>
COc1ccc(C(NC(C)=O)c2ccc3cccnc3c2O)c(OC)c1 (stereo unspecified)

>  <inhibition (%)>
20.8

$$$$
>  <compound>
CC(C)C(=O)NC(c1ccco1)c1ccc2cccnc2c1O (stereo unspecified)

>  <inhibition (%)>
23.1

$$$$
>  <compound>
CC(C)(C)NC(=S)NC(=O)C12CCC3CC(CC(C3)C1)C2

>  <inhibition (%)>
0.27

$$$$
>  <compound>
CCN1C(c2ccccc2)=C(c2ccccc2)S/C1=C\C=C1/SC(=S)N(C)C1=O

>  <inhibition (%)>
15.8

$$$$
>  <compound>
CC(C)C(=O)NC(c1cccc([N+](=O)[O-])c1)c1ccc2cccnc2c1O (stereo unspecified)

>  <inhibition (%)>
17.9

$$$$

Okay, now this compound:
**Q:** Name the reported inhibition value associated with the compound O=C(NCCCN1CCCC1=O)C(=O)NCC1OCCCN1S(=O)(=O)c1cc(F)ccc1F (stereo unspecified)
**A:** -6.67

The origin of these recorded values is PubChem BioAssay AID504329.
